Test system: DIV17
assay procedure: qHTS profiling for inhibitors of Plasmodium falciparum proliferation (AID 504749); note: nearly all actives have a fitted effect of over 60% in size
condition notes: P. falciparum in erythrocytes, SYBR Green DNA, 72 h; series mostly up to 12.8 µM
Results filed as inconclusive are left out. Activity calls are given as the source filed them. Calls come from the whole dose curve; as a rule, active = well fitted inhibition curve with a large enough effect; inconclusive = small, poorly fitted or top-dose-only effect; inactive = flat fitted curve, though single readings scatter.
Your response should consist of one outcome taken from 1 for active, -1 for inactive

compound | class label
C/C1=C2N=C(/C=C3N=C(/C(C)=C4\[N-]C(C)(C5N=C1C(C)(CCC(=O)NCC(C)OP(=O)([O-])O[C@H]1C(O)C(n6cnc7cc(C)c(C)cc76)O[C@@H]1CO)C5CC(N)=O)C(C)(CC(N)=O)C4CCC(N)=O)C(C)(CC(N)=O)C\3CCC(N)=O)C(C)(C)C/2CCC(N)=O.[CH2-]C1OC(n2cnc3c(N)ncnc32)C(O)C1O.[Co] (stereo not given in full) | -1

query: # lookup: test call for Cc1ccc2c(c1)c1c3n2CCN[C@H]3CCC1
result: 1

query: # lookup: test call for CC(=O)OCC(=O)[C@@]1(O)[C@H](C)C[C@@H]2[C@H]3CCC4=CC(=O)C=C[C@]4(C)[C@]3(F)[C@@H](O)C[C@@]21C
result: -1

###

system name: Ubiquitin carboxyl-terminal hydrolase 1 (Homo sapiens) (UniProt O94782)
Sequence (O94782 whole entry, looked up): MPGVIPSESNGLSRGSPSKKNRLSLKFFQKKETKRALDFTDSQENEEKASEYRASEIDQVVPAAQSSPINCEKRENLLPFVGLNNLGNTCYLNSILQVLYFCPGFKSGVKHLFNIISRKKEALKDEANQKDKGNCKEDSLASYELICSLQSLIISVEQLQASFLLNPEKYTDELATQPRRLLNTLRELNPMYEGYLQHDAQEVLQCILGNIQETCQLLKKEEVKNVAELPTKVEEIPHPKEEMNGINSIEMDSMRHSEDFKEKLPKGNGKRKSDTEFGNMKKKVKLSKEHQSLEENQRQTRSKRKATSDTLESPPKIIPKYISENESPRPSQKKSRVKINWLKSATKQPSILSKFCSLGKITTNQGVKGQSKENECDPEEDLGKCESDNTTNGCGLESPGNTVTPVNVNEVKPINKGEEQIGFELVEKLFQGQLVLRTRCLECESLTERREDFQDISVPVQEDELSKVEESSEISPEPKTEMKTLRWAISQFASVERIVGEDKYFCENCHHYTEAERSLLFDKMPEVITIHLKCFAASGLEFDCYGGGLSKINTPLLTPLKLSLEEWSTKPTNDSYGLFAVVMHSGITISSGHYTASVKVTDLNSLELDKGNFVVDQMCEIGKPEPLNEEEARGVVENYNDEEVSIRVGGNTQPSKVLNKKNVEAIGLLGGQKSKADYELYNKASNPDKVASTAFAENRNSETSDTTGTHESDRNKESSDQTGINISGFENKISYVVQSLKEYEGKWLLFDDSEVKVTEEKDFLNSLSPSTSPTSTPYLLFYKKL
assay procedure: Inhibitors of USP1/UAF1: Pilot qHTS (AID 504865);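 note: rhodamine fluorescence freed from ubiquitin-rhodamine substrate followed over time; top concentration of the series differs between compounds; % is set by controls: 0 for no effect and ±100 for the full control effect; nearly all actives have a fitted effect of over 35% in size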
condition notes: purified USP1/UAF1, Ub-rhodamine cleavage fluorescence; series mostly up to 114 µM
Results filed as inconclusive are left out. Active and inactive are the calls of the source. Calls come from the whole dose curve; as a rule, active = well fitted inhibition curve with a large enough effect; inconclusive = small, poorly fitted or top-dose-only effect; inactive = flat fitted curve, though single readings scatter.
property name: outcome

# annotated cases, reported outcome shown
molecule | system name | property name | reported
Cc1cc(=O)oc2cc(O[C@@H]3O[C@H](C(=O)O)[C@@H](O)[C@H](O)[C@H]3O)ccc12 | Ubiquitin carboxyl-terminal hydrolase 1 (Homo sapiens) (UniProt O94782) | outcome | inactive
O=C1OC(CO)C(O)C(O)C1O (stereo not drawn) | Ubiquitin carboxyl-terminal hydrolase 1 (Homo sapiens) (UniProt O94782) | outcome | inactive
CO[C@@H]1C[C@H](O[C@H]2[C@@H](C)[C@H](O[C@@H]3O[C@@H](C)C[C@@H](N(C)C)[C@@H]3OC(C)=O)[C@H](C)C[C@]3(CO3)C(=O)[C@H](C)[C@H](OC(C)=O)[C@H](C)[C@H](C)OC(=O)[C@@H]2C)O[C@H](C)[C@@H]1OC(C)=O | Ubiquitin carboxyl-terminal hydrolase 1 (Homo sapiens) (UniProt O94782) | outcome | inactive
O=c1cc(-c2ccc(O)c(O)c2)oc2ccccc12 | Ubiquitin carboxyl-terminal hydrolase 1 (Homo sapiens) (UniProt O94782) | outcome | inactive

query: Recorded outcome of NS(=O)(=O)c1cc2c(cc1Cl)N[C@@H](C(Cl)Cl)NS2(=O)=O , please.
result: inactive

query: Recorded outcome of CNCCC=C1c2ccccc2C=Cc2ccccc21 , please.
result: inactive

query: Recorded outcome of COC1C[C@@H](O[C@@H]2C(C)C(=O)OC(C)C(C)C(O)C(C)C(=O)[C@@]3(CO3)CC(C)C(OC3OC(C)CC(N(C)C)C3O)C2C)OC(C)[C@@H]1O (stereo partly drawn) , please.
result: inactive

query: Recorded outcome of Nc1nc2nc(Cl)[nH]c2c(=O)[nH]1 , please.
result: inactive

###

assay procedure: qHTS Assay for Lipid Storage Modulators (AID 1519)
condition notes: Drosophila S3 cells, BODIPY lipid droplet/cell ratio, laser cytometry; measured here: lipid channel max response; cells loaded with oleic acid
Inconclusive results are not listed.
# if value of max response reaches -20%, tag Criterion met; if it stays below, tag Criterion not met

Field: example entries. Status: answers known.
compound | class label
CC(=O)OC1CC2C(C)(C)C(O)CC[C@@]2(C)C2CC[C@@]3(C)C(c4ccoc4)OC(=O)C4OC43[C@]12C (stereo not given in full) | Criterion not met
C=C1CC/C=C(\C)CC[C@@H]2[C@@H]1CC2(C)C | Criterion not met

query: Check if max response >= -20% (inclusive). Item: CC(=O)OC/C=C(\C)CC/C=C(\C)CC/C=C(\C)CC/C=C(\C)CC/C=C(\C)CC/C=C(\C)CC/C=C(\C)CC/C=C(\C)CCC=C(C)C
result: Criterion met

query: Check if max response >= -20% (inclusive). Item: CC(C)c1ccc2c(c1)CCC1C(C)(C(N)=O)CCCC21C (stereo not given)
result: Criterion met

query: Check if max response >= -20% (inclusive). Item: CC(=O)OCCC(C)CCC=C(C)C (stereo not given)
result: Criterion met

###

system name: Phospholipid hydroperoxide glutathione peroxidase GPX4 (Homo sapiens)
assay procedure: Primary qHTS Assay for Inhibitors of Recombinant Selenoprotein Glutathione Peroxidase 4 (GPX4) (AID 1845192); note: nearly all actives have a fitted effect of over 65% in size
condition notes: recombinant GPX4, GR-coupled NADPH fluorescence, 15 min; series mostly up to 50 µM
Records with an inconclusive call do not appear. The source made the active and inactive calls. The call rests on the fitted dose curve; in most records, active means well fitted inhibition curve with a large enough effect; inconclusive means small, poorly fitted or top-dose-only effect; inactive means flat fitted curve, though single readings scatter.
Your response should consist of one outcome taken from 1 for active, -1 for inactive

Field: example entries. Status: answers known.
chemical structure | class label
CC(C)[C@H]1CC[C@H](C)C[C@H]1O | -1
CCC[C@H](NC(=O)[C@@H]1[C@H]2CCC[C@H]2CN1C(=O)[C@@H](NC(=O)[C@@H](NC(=O)c1cnccn1)C1CCCCC1)C(C)(C)C)C(=O)C(=O)NC1CC1 | -1
CC(C)(C)NC(=O)c1cncn1C1CCN(c2ccc(-c3nnc(C(F)(F)F)o3)cn2)CC1 | -1
N#Cc1cccnc1N1CCN(C(=O)c2cccc(Cc3n[nH]c(=O)c4ccccc34)c2)CC1 | -1

query: # lookup: test call for CCN1C(=O)N2Cc3cc(OC)cc(OC)c3[C@@H](C)C=C2C12CCN(Cc1cc(C)cc(C)c1)CC2
result: -1

query: # lookup: test call for CC[C@H]1OC(=O)[C@H](C)[C@@H](O[C@H]2C[C@@](C)(OC)[C@@H](O)[C@H](C)O2)[C@H](C)[C@@H](O[C@@H]2O[C@H](C)C[C@H](N(C)C)[C@H]2O)[C@](C)(OC)C[C@@H](C)C(=O)[C@H](C)[C@@H](O)[C@]1(C)O
result: -1

query: # lookup: test call for Cc1ccc(Nc2nnc(Cc3ccncc3)c3ccccc23)cc1Br
result: -1

query: # lookup: test call for Cc1ccc(-n2nc(C(C)(C)C)cc2NC(=O)NCc2cc(F)ccc2Oc2ccc3c(cnn3CCO)c2)cc1
result: -1

query: # lookup: test call for O=C(Nc1ncc(SCCN2CCCC2)s1)[C@]1(c2ccc(S(=O)(=O)C3CC3)cc2)C[C@H]1C1CCCCC1
result: -1

query: # lookup: test call for C/C=C/C[C@@H](C)C(=O)[C@H]1C(=O)N[C@@H](C(C)C)C(=O)N(C)CC(=O)N(C)[C@@H](CC(C)C)C(=O)N[C@@H](C(C)C)C(=O)N(C)[C@@H](CC(C)C)C(=O)N[C@@H](C)C(=O)N[C@H](C)C(=O)N(C)[C@@H](CC(C)C)C(=O)N(C)[C@@H](CC(C)C)C(=O)N(C)[C@@H](C(C)C)C(=O)N1C
result: -1

query: # lookup: test call for Cc1ccc([C@@H]2O[C@H](CO)[C@@H](O)[C@H](O)[C@H]2O)cc1Cc1ccc(-c2ccc(F)cc2)s1
result: -1

query: # lookup: test call for C[C@@H]1C[C@H]2[C@@H]3C[C@H](F)C4=CC(=O)C=C[C@]4(C)[C@@]3(F)[C@@H](O)C[C@]2(C)[C@@]1(O)C(=O)COC(=O)C(C)(C)C
result: -1

query: # lookup: test call for CC/C(=C(/c1ccc(/C=C/C(=O)O)cc1)c1ccc2[nH]ncc2c1)c1ccc(F)cc1Cl
result: 1

query: # lookup: test call for c1ccc2c(-c3cnn4cc(-c5ccc(OCCN6CCOCC6)cc5)cnc34)ccnc2c1
result: -1

###

system name: Rap guanine nucleotide exchange factor 3 (Homo sapiens)
assay procedure: Counterscreen qHTS for agonist of cAMP-regulated guanine nucleotide exchange factor 3 (EPAC1) (AID 1645889); note: % of control where 0% means no effect; nearly all actives have a fitted effect of over 40% in size
condition notes: EPAC1 Rap1B-BODIPY-GDP exchange, fluorescence; series mostly up to 154 µM
Inconclusive results are not listed. The source made the active and inactive calls. Calls come from the whole dose curve; as a rule, active = well fitted activation curve with a large enough effect; inconclusive = small, poorly fitted or top-dose-only effect, or another doubt; inactive = no such curve, though single readings can be large or run the other way.
property name: activation

# annotated cases, reported activation shown
chemical structure | activation
COc1cccc(CC(=O)Nc2ccc(S(=O)(=O)Nc3nccs3)cc2)c1 | 9.39% [at 30.8 µM] (inactive)
O=C(O)c1ccc(/C=N/N2CCN(Cc3cccc4ccccc34)CC2)cc1 | 4.41% [at 30.8 µM] (inactive)
CCc1ccc(OCCCSc2nc(-c3ccc(C(C)(C)C)cc3)nc3cc(=O)[nH]n23)cc1 | inactive
Cc1ccn2cc(CNC(=O)c3cccs3)nc2c1 | inactive
Cc1ccc2nc(-c3ccc(NC(=O)c4ccco4)cc3)[nH]c2c1 | 29.2% [at 30.8 µM] (inactive)

Next compound, please.
query: Recorded activation of Cc1cccc(CN2[C@@H](CC(C)C)COCCS2(=O)=O)c1 , please.
result: inactive

###

assay procedure: qHTS profiling for inhibitors of Plasmodium falciparum proliferation (AID 504749); note: nearly all actives have a fitted effect of over 60% in size;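 for activity, negative = inhibition: 0% = DMSO vehicle and full inhibition = artemisinin control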
condition notes: P. falciparum in erythrocytes, SYBR Green DNA, 72 h; at 12.8 µM (top of the series); parasite line B
Results filed as inconclusive are left out. Bridge positions count the residues as written; N and C are the ends. Square brackets hold non-standard residues; d marks the D form. Peptide text beside a SMILES is read from it. * marks the point of attachment. Ileψ(thiazoline)Cys = CC[C@H](C)[C@H](N)C1=N[C@H](C(=O)*)CS1; d(aIle) = CC[C@H](C)[C@@H](N)C(=O)O; dOrn = NCCC[C@@H](N)C(=O)O
property name: activity, negative = inhibition (%)
Just the number please, in %, no unit attached.

# annotated cases, reported activity, negative = inhibition shown
molecule | property name | u | reported
COc1ccc([C@@H]2CC(=O)c3c(O)cc(O[C@H]4O[C@@H](CO[C@H]5O[C@@H](C)[C@@H](O)[C@@H](O)[C@@H]5O)[C@@H](O)[C@@H](O)[C@@H]4O)cc3O2)cc1O | activity, negative = inhibition | % | -4.16
CC[N+](CC)(CC)CC[C@](O)(c1ccccc1)C1CCCCC1 | activity, negative = inhibition | % | -24.4
CC[C@H](C)[C@H](N)C1=N[C@H](C(=O)N[C@@H](CC(C)C)C(=O)N[C@@H](CCC(=O)O)C(=O)N[C@@H](C(=O)N[C@H]2CCCCNC(=O)[C@@H](CC(N)=O)NC(=O)[C@@H](CC(=O)O)NC(=O)[C@@H](Cc3cnc[nH]3)NC(=O)[C@@H](Cc3ccccc3)NC(=O)[C@@H]([C@@H](C)CC)NC(=O)[C@@H](CCCN)NC2=O)[C@@H](C)CC)CS1 ({Ileψ(thiazoline)Cys}-LE[d(aIle)]K[dOrn][d(aIle)][dF][dH][dD][dN]; lactam 4-C) | activity, negative = inhibition | % | 7.07

query: Recorded activity, negative = inhibition of Cc1ccc(S(=O)(=O)NC(=O)NN2C[C@H]3CCC[C@@H]3C2)cc1 , please.
result: 12.1

query: Recorded activity, negative = inhibition of NC[C@@H]1O[C@H](O[C@H]2[C@H](O)[C@H](O[C@@H]3O[C@H](CO)[C@@H](O)[C@H](N)[C@@H]3O)[C@@H](N)C[C@H]2N)[C@@H](O)[C@H](O)[C@@H]1O , please.
result: 7.68
